Assayed Target: Estrogen receptor (Homo sapiens)
Protocol Text: OT_ERa_GFPERaERE_0480: Odyssey Thera (OT) 8-hour HeLa Transcription Induction Assay for Estrogen Receptor (AID 2283381)
Activity calls are given as the source filed them. Rule for the calls: active = hit-call score of the fitted dose curve at least 0.9, where 1 is the maximum; inactive = score below 0.9.
Outcome Measure: outcome

Here is how some compounds turned out for outcome.
>>> print(df.to_string())
                               input_smiles  value_reported
0                              CCOCCOC(C)=O        inactive
1  O=C(NC(=O)c1cc(F)c(F)cc1Cl)Nc1cc(F)ccc1N1CCC(C(=O)O)CC1        inactive
2                  CCOP(=S)(OCC)SCSC(C)(C)C        inactive
3          CCCCCCOC(=O)c1ccccc1C(=O)OCCCCCC        inactive

Next compound, please.
Incoming: For `COc1ccc(O)c(C(C)(C)C)c1` , what is its reported outcome?
Outgoing: inactive

###

Read-out: Tumor necrosis factor receptor 1 (TNFRSF1A), TNFRSF1A (gene 7132)
Protocol Text: LTEA_HepaRG_TNFRSF1A: Life Technologies and Expression Analysis (LTEA) Assay for Tumor necrosis factor receptor 1 (TNFRSF1A) using HepaRG (AID 2283535)
Test Context: mRNA level, 48 h; actives raise or lower the signal
The source made the active and inactive calls. The calls were made as follows: active = hit-call score of the fitted dose curve at least 0.9, where 1 is the maximum; inactive = score below 0.9.
Outcome Measure: AC50

Here is how some compounds turned out for AC50.
>>> print(df.to_string())
                               input_smiles  outcome_measure    value_reported
0          CCCCCCOC(=O)c1ccccc1C(=O)OCCCCCC             AC50          inactive
1  N#Cc1ccc(N(CC(N)=O)CC(F)(F)F)cc1C(F)(F)F             AC50          inactive
2                CC(C)(c1ccccc1)c1ccc(O)cc1             AC50          inactive
3  Oc1ccc(C(c2ccc(O)cc2)(C(F)(F)F)C(F)(F)F)cc1             AC50          inactive
4  CO/C=C(/C(=O)OC)c1ccccc1COc1cccc(C(F)(F)F)n1             AC50  4.97 µM (active)

Next compound, please.
Incoming: For `C=CC(N)=O` , what is its reported AC50?
Outgoing: inactive

###

Read-out: Interleukin-1 alpha (IL1a), IL1A (gene 3552)
Protocol Text: BSK_LPS_IL1a: BioMAP Diversity Plus: LPS Assay for Interleukin-1 alpha (IL1a) Biomarker Activity (AID 2283080)
Test Context: primary human HUVEC with PBMC; actives raise or lower the signal
Calls of active or inactive are those of the source. The calls were made as follows: active = hit-call score of the fitted dose curve at least 0.9, where 1 is the maximum; inactive = score below 0.9.
Please answer using one outcome listed in Y for active, N for inactive

# example entries with known answers
>>> df
                                   compound  assigned_label
0                                  CN(C)CCO               N
1  CCC(=O)O[C@H]1CC[C@H]2[C@@H]3CCC4=CC(=O)CC[C@]4(C)[C@H]3CC[C@]12C               Y
2                            Cc1cc(O)ccc1Cl               N
3          CCCCCCOC(=O)c1ccccc1C(=O)OCCCCCC               N
4    CCOC(=O)C(O)(c1ccc(Cl)cc1)c1ccc(Cl)cc1               Y

Incoming: Fill in: this test's call for `Oc1ccc(Cl)cc1Cl` is ___
Outgoing: N

Incoming: Try this compound too: `CN(C)c1nc(=O)n(C2CCCCC2)c(=O)n1C`
Outgoing: N

Incoming: Try this compound too: `CCC(C)(c1ccc(O)cc1)c1ccc(O)cc1`
Outgoing: N

Incoming: Try this compound too: `C=CC(N)=O`
Outgoing: N

Incoming: Try this compound too: `N#Cc1ccc(N(CC(N)=O)CC(F)(F)F)cc1C(F)(F)F`
Outgoing: N

Incoming: Try this compound too: `CCC(C)(CC)c1cc(NC(=O)c2c(OC)cccc2OC)on1`
Outgoing: N

Incoming: Try this compound too: `Sc1ccccc1`
Outgoing: N

###

Protocol Text: ATG_ISRE_CIS: Attagene CIS-FACTORIAL HepG2 Assay for human Interferon Regulatory Factor 1 (IRF1) binding to an Interferon-Stimulated Response Element (ISRE) (AID 2282948)
Test Context: HepG2 ISRE cis-reporter (Attagene), mRNA transcription readout; actives raise or lower the signal
Description: ATG_CIS is a cell-based, multiplexed-readout assay that uses HepG2, a human liver cell line, with measurements taken at 24 hours after chemical dosing in a 24-well plate.ATG_ISRE_CIS is one of 52 assay component(s) measured or calculated from the ATG_CIS assay. […] This assay endpoint, ATG_ISRE_CIS, was analyzed with bidirectional fitting relative to DMSO as the negative control and baseline of activity. […]
Calls of active or inactive are those of the source. The calls were made as follows: active = hit-call score of the fitted dose curve at least 0.9, where 1 is the maximum; inactive = score below 0.9.
Please answer using one outcome listed in 1 (active), -1 (inactive)

# example entries with known answers
>>> print(df.to_string())
                               input_smiles  assigned_label
0  ClC1=C(Cl)[C@]2(Cl)[C@@H]3[C@@H]4C[C@@H]([C@H]5O[C@@H]45)[C@@H]3[C@@]1(Cl)C2(Cl)Cl               1
1                    O=NN(c1ccccc1)c1ccccc1              -1
2  O=C(O)C(F)(F)C(F)(F)C(F)(F)C(F)(F)C(F)(F)F              -1

Incoming: Fill in: this test's call for `O=C(N[C@H]1CN2CCC1CC2)c1cc2ccoc2cn1` is ___
Outgoing: 1

Incoming: Try this compound too: `COc1ccc(O)c(C(C)(C)C)c1`
Outgoing: -1

Incoming: Try this compound too: `ClC1=C(Cl)[C@]2(Cl)[C@@H]3[C@@H](Cl)[C@H]4O[C@H]4[C@@H]3C1(Cl)C2(Cl)Cl`
Outgoing: 1

###

Read-out: Transforming growth factor beta 1 (TGFb1), TGFB1 (gene 7040)
Protocol Text: BSK_KF3CT_TGFb1: BioMAP Diversity Plus: KF3CT Assay for Transforming growth factor beta 1 (TGFb1) Biomarker Activity (AID 2283072)
Test Context: primary human keratinocytes with fibroblasts; actives raise or lower the signal
Activity calls are given as the source filed them. The calls were made as follows: active = hit-call score of the fitted dose curve at least 0.9, where 1 is the maximum; inactive = score below 0.9.
Please answer using one outcome listed in 1.0 (active), 0.0 (inactive)

>>> df
          molecule  assigned_label
0  Cc1ccc(O)c(C)c1             0.0

Incoming: Fill in: this test's call for `C=CC(N)=O` is ___
Outgoing: 0.0

Incoming: Try this molecule too: `Sc1ccccc1`
Outgoing: 0.0

Incoming: Try this molecule too: `O=C(NC(=O)c1cc(F)c(F)cc1Cl)Nc1cc(F)ccc1N1CCC(C(=O)O)CC1`
Outgoing: 0.0

Incoming: Try this molecule too: `Cc1ccccc1O`
Outgoing: 0.0

Incoming: Try this molecule too: `C[C@]12CCC(=O)C=C1CC[C@@H]1[C@@H]2CC[C@@]2(C)[C@H]1CC[C@]2(C)O`
Outgoing: 0.0

Incoming: Try this molecule too: `Cc1cccc(C)c1N`
Outgoing: 0.0

Incoming: Try this molecule too: `CCCN(CCC)N=O`
Outgoing: 0.0

Incoming: Try this molecule too: `NS(=O)(=O)C(F)(F)C(F)(F)C(F)(F)C(F)(F)C(F)(F)C(F)(F)C(F)(F)C(F)(F)F`
Outgoing: 1.0

Incoming: Try this molecule too: C1CC2OC2CC1C1CO1 (centres undefined)
Outgoing: 0.0

###

Protocol Text: ATG_TCF_b_cat_CIS: Attagene CIS-FACTORIAL HepG2 Assay for human T-Cell-Factor with beta-catenin (TCF/b-cat) (AID 2282965)
Test Context: HepG2 TCF/beta-catenin cis-reporter transcription, actives raise or lower the signal
Description: ATG_CIS is a cell-based, multiplexed-readout assay that uses HepG2, a human liver cell line, with measurements taken at 24 hours after chemical dosing in a 24-well plate.ATG_TCF_b_cat_CIS is one of 52 assay component(s) measured or calculated from the ATG_CIS assay. […] This assay endpoint, ATG_TCF_b_cat_CIS, was analyzed with bidirectional fitting relative to DMSO as the negative control and baseline of activity. […]
Active and inactive are the calls of the source. Rule for the calls: active = hit-call score of the fitted dose curve at least 0.9, where 1 is the maximum; inactive = score below 0.9.
Please answer using one outcome listed in active, inactive

# example entries with known answers
>>> df
                              molecule  assigned_label
0              COc1ccc(O)c(C(C)(C)C)c1          active
1  C1CC2OC2CC1C1CO1 (stereo not drawn)        inactive
2                        COS(=O)(=O)OC        inactive
3              Cc1cccc([N+](=O)[O-])c1        inactive

Incoming: Fill in: this test's call for `Cc1cccc(C)c1N` is ___
Outgoing: inactive

Incoming: Try this molecule too: `CC(c1ccc(O)cc1)(c1ccc(O)cc1)c1ccc(O)cc1`
Outgoing: active
